Recorded values, source paper PMC8484140.

assay: Plasma pharmacokinetics of entinostat; format: in vivo, human; details: female, human, plasma, po, 3 mg/week
MEASURE NAME: half-life

Inquiry: Return value of half-life for input Nc1ccccc1NC(=O)c1ccc(CNC(=O)OCc2cccnc2)cc1 , no commentary.
Reply text: 65.3 h

* * *

assay: Pharmacokinetics of exemestane, additional 21 patients; format: in vivo; details: female, human, plasma, oral, 25 mg
MEASURE NAME: Tmax (h)
Express it in h; write the number only.

Inquiry: Quick one: give measured Tmax for C=C1C[C@@H]2[C@H](CC[C@]3(C)C(=O)CC[C@@H]23)[C@@]2(C)C=CC(=O)C=C12 [Exemestane]
Reply text: 1.02
